The reported numbers originate from ChEMBL document CHEMBL1155993.

System: Staphylococcus aureus
method-notes: Antibacterial activity against methicillin resistant Staphylococcus aureus SA-1417 by NCCLS method
Assay type: functional
readout-kind: MIC
Enter the number, and then the unit.

CCNC(=O)Nc1cn2c(-c3nc(C)cc(C(F)(F)F)n3)cc(-c3cccnc3)cc2n1
1 µg/mL
CCNC(=O)Nc1cn2c(-c3ncc(C)cn3)cc(-c3cnc(N(C)C)nc3)cc2n1
4 µg/mL
CCNC(=O)Nc1cn2c(-c3ncc(Cl)cn3)cc(-c3cccnc3)cc2n1
0.25 µg/mL

Fill in the blank: the reported MIC of Cc1cnc(-c2cc(-c3cccnc3)cc3nc(NC(=O)N(C)C(F)(F)F)cn23)nc1 is ____.
4 µg/mL

Param item = CCNC(=O)Nc1cn2c(-c3nccc(C(=O)OC)n3)cc(-c3cccnc3)cc2n1 ; retrieve measured MIC.
8 µg/mL

====

System: Streptococcus pneumoniae
method-notes: Antibacterial activity against Streptococcus pneumoniae SP-3 by NCCLS method
Format: functional
readout-kind: MIC (µg/mL)
# unit: µg/mL | format: bare number

These solved cases illustrate the format of a correct answer.
CCNC(=O)Nc1cn2c(-c3ncc(C)cn3)cc(-c3ccn(CCF)c(=O)c3)cc2n1
0.125
CCNC(=O)Nc1cn2c(-c3nc(C)cc(C)n3)cc(-c3cccnc3)cc2n1
0.5
CCNC(=O)Nc1cn2c(-c3nccc(C(=O)OC)n3)cc(-c3cccnc3)cc2n1
16
CCNC(=O)Nc1cn2c(-c3ncc(C)cn3)cc(-c3ccn(C)c(=O)c3)cc2n1
0.06
Cc1cnc(-c2cc(-c3cccnc3)cc3nc(NC(=O)NC4CC4)cn23)nc1
1

Which MIC is listed for CCNC(=O)Nc1cn2c(-c3ncc(CC)cn3)cc(-c3cccnc3)cc2n1 ?
0.06

Endpoint output: MIC of CCNC(=O)Nc1cn2c(-c3ncc(C)cn3)cc(-c3ccn(CC(=O)O)c(=O)c3)cc2n1 . Value?
64

GET /values?readout=MIC&item= Cc1cnc(-c2cc(-c3cccnc3)cc3nc(NC(=O)N(C)C(F)(F)F)cn23)nc1
0.25

Look at this molecule and give its reported MIC. CCCn1ccc(-c2cc(-c3ncc(C)cn3)n3cc(NC(=O)NCC)nc3c2)cc1=O
0.06

Can you share its MIC? I mean this molecule: CCCCNC(=O)Nc1cn2c(-c3ncc(C)cn3)cc(-c3cccnc3)cc2n1
2

====

Test system: Streptococcus pneumoniae
method-notes: Antibacterial activity against Streptococcus pneumoniae SP-3 by NCCLS method
Assay type: functional
readout-kind: MIC (µg/mL)
Answer format: numeric, µg/mL implied, no suffix.

Worked set:
CCNC(=O)Nc1cn2c(-c3ncccn3)cc(-c3ccc(C)nc3)cc2n1
0.06
CCNC(=O)Nc1cn2c(-c3ncc(C)cn3)cc(-c3cnc(N4CCCC4)nc3)cc2n1
0.125
CCNC(=O)Nc1cn2c(-c3ncc(S(C)(=O)=O)cn3)cc(-c3cccnc3)cc2n1
8
CCNC(=O)Nc1cn2c(-c3nc(C)cc(C(F)(F)F)n3)cc(-c3cccnc3)cc2n1
0.25

Consider the additional molecule presented here.
For the molecule CCNC(=O)Nc1cn2c(-c3ncccn3)cc(-c3cncnc3)cc2n1 , what MIC is on record?
0.125

====

method-notes: Clearance in rat
Format: ADME, organism-based
stated-conditions: in vivo
Catalogue of clearance readings, one per entry.

CCNC(=O)Nc1cn2c(-c3ncc(C)cn3)cc(-c3cccnc3)cc2n1
18 mL/min/kg

# input for lookup
Looking for the measured clearance of CCNC(=O)Nc1cn2c(-c3ncccn3)cc(-c3cccnc3)cc2n1 , can you help?
33 mL/min/kg

====

Tested on: Staphylococcus aureus
method-notes: Antibacterial activity against Staphylococcus aureus UC76 by NCCLS method
Format: functional, organism-based
stated-conditions: read-out: MIC
The following molecules are listed with their measured log10 MIC values.
Log10 applied to MIC; unit prior to transform: µg/mL.

CCNC(=O)Nc1cn2c(-c3ncc(C)cn3)cc(-c3cnc(N4CCCC4)nc3)cc2n1
-0.30
CCNC(=O)Nc1cn2c(-c3ncc(C)cn3)cc(-c3ccn(CC(=O)O)c(=O)c3)cc2n1
1.81
CCNC(=O)Nc1cn2c(-c3ncc(C)cn3)cc(-c3cnc(OC)nc3)cc2n1
1.20
Cc1cnc(-c2cc(-c3cccnc3)cc3nc(NC(=O)N(C)C(F)(F)F)cn23)nc1
0.90
CCNC(=O)Nc1cn2c(-c3ncc(C)cn3)cc(-c3ccc(C)nc3)cc2n1
-0.30

Kindly state the measured log10 MIC obtained for CCNC(=O)Nc1cn2c(-c3ncc(S(C)(=O)=O)cn3)cc(-c3cccnc3)cc2n1 with Staphylococcus aureus.
1.81

# get_value(readout= log10 MIC, system= Staphylococcus aureus) for CCNC(=O)Nc1cn2c(-c3ncc(C)cn3)cc(-c3cnc(N(C)C)nc3)cc2n1
0.00

Form field - read-out: log10 MIC; system: Staphylococcus aureus; submitted item: CCNC(=O)Nc1cn2c(-c3ncc(C(C)C)cn3)cc(-c3cccnc3)cc2n1
0.00

====

System: Staphylococcus aureus
method-notes: Antibacterial activity against methicillin resistant Staphylococcus aureus SA-1417 by NCCLS method
Format: functional
Below, each entry is listed alongside its reported MIC.
Field: numeric (µg/mL). Do not append units.

CCNC(=O)Nc1cn2c(-c3ncc(C)cn3)cc(-c3ccn(CC)c(=O)c3)cc2n1
0.5

Now examine the next entry.
So what's the measured MIC for this one? CCNC(=O)Nc1cn2c(-c3ncc(C)cn3)cc(-c3ccc(C)nc3)cc2n1
1

====

method-notes: Volume of distribution in rat
Format: ADME, organism-based
stated-conditions: in vivo
Vd: recorded values
Field format: number, assumed L/kg, no unit text.

CCNC(=O)Nc1cn2c(-c3ncccn3)cc(-c3cccnc3)cc2n1
1.6

Given the compound CCNC(=O)Nc1cn2c(-c3ncc(C)cn3)cc(-c3cccnc3)cc2n1 , what is its reported Vd?
1.3

====

Each entry below carries its recorded MIC.
Tested on: Streptococcus pneumoniae
method-notes: Antibacterial activity against fluoroquinolone resistant Streptococcus pneumoniae SP-3765 by NCCLS method
Assay type: functional
Report the value in µg/mL with no unit label.

Reference set, count: 3
CCNC(=O)Nc1cn2c(-c3ncccn3)cc(-c3cccnc3)cc2n1
0.25
CCNC(=O)Nc1cn2c(-c3ncc(C)cn3)cc(-c3ccn(C)c(=O)c3)cc2n1
0.06
CCNC(=O)Nc1cn2c(-c3ncc(S(C)(=O)=O)cn3)cc(-c3cccnc3)cc2n1
16

Moving on to another molecule below.
Look up MIC: CCOC(=O)Nc1cn2c(-c3nccc(C)n3)cc(-c3cnc(N(C)C)nc3)cc2n1
0.125

====

study-system: DNA gyrase subunit B (Streptococcus pneumoniae serotype 4 (strain ATCC BAA-334 / TIGR4), UniProt P0A4L9)
Sequence (P0A4L9 whole entry): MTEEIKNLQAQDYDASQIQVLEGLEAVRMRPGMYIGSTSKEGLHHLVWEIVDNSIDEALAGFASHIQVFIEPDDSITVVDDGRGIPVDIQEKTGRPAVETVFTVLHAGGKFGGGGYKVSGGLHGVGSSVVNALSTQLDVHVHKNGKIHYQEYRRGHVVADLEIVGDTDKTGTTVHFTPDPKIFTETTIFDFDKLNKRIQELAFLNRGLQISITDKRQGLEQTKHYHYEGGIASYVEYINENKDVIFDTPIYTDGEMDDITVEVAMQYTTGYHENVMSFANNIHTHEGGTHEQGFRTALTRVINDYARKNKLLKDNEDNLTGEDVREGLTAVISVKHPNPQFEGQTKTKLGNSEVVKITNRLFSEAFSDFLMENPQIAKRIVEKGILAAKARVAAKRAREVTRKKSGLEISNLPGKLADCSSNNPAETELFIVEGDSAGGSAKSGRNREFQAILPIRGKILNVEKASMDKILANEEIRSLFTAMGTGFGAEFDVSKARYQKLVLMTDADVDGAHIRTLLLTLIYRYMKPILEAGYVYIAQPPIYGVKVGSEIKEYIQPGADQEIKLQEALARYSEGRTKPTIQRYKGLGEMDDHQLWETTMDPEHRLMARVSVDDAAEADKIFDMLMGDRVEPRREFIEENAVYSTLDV
method-notes: Inhibition of Streptococcus pneumoniae SP-3 gyrB by enzyme coupled phosphate assay
readout-kind: IC50 (nM)
# number only, unit nM dropped from output

Some compounds with recorded IC50:
CCNC(=O)Nc1cn2c(-c3ncc(C)cn3)cc(-c3cnc(OC)nc3)cc2n1
132
CCNC(=O)Nc1cn2c(-c3ncc(C(F)(F)F)cn3)cc(-c3cccnc3)cc2n1
163
CNC(=O)Nc1cn2c(-c3ncc(C)cn3)cc(-c3cccnc3)cc2n1
92
CCCn1ccc(-c2cc(-c3ncc(C)cn3)n3cc(NC(=O)NCC)nc3c2)cc1=O
97
CCNC(=O)Nc1cn2c(-c3ncc(C)cn3)cc(-c3ccn(CC(=O)O)c(=O)c3)cc2n1
98

For the next question, use this compound.
Look at this compound and give its reported IC50. CCNC(=O)Nc1cn2c(-c3ncccn3)cc(-c3cnc(N(C)C)nc3)cc2n1
137

====

Tested on: Staphylococcus aureus
method-notes: Antibacterial activity against Staphylococcus aureus UC76 by NCCLS method
Type: functional, organism-based
stated-conditions: read-out: MIC
MIC by entry:
// return numeric value only (unit: µg/mL, not printed)

# annotated cases, reported MIC shown
CCNC(=O)Nc1cn2c(-c3nccc(C4CC4)n3)cc(-c3cccnc3)cc2n1
0.5
CNC(=O)Nc1cn2c(-c3ncc(C)cn3)cc(-c3cccnc3)cc2n1
4
CCNC(=O)Nc1cn2c(-c3nccc(C)n3)cc(-c3cnc(N(C)C)nc3)cc2n1
0.5
CCNC(=O)Nc1cn2c(-c3ncc(C)cn3)cc(-c3ccn(CC)c(=O)c3)cc2n1
0.25
CCNC(=O)Nc1cn2c(-c3ncc(Cl)cn3)cc(-c3cccnc3)cc2n1
0.25

# MIC lookup, item CCNC(=O)Nc1cn2c(-c3ncc(C)cn3)cc(-c3ccn(CCOC)c(=O)c3)cc2n1
0.06

Please look up its MIC: CCOC(=O)Nc1cn2c(-c3nccc(C)n3)cc(-c3cnc(N(C)C)nc3)cc2n1
64

====

study-system: DNA gyrase subunit B (Streptococcus pneumoniae serotype 4 (strain ATCC BAA-334 / TIGR4))
method-notes: Inhibition of Streptococcus pneumoniae SP-3 gyrB by enzyme coupled phosphate assay
readout-kind: pIC50
Formally, pIC50 is defined as -log10 of the concentration c, with c in mol/L.

What pIC50 appears in the records for this compound with DNA gyrase subunit B (Streptococcus pneumoniae serotype 4 (strain ATCC BAA-334 / TIGR4))? CCNC(=O)Nc1cn2c(-c3nccc(C)n3)cc(-c3cnc(N(C)C)nc3)cc2n1
6.95

Query the reported pIC50 for DNA gyrase subunit B (Streptococcus pneumoniae serotype 4 (strain ATCC BAA-334 / TIGR4)); item: CCNC(=O)Nc1cn2c(-c3ncc(C)cn3)cc(-c3ccc(C)nc3)cc2n1
7.02

Record lookup: for DNA gyrase subunit B (Streptococcus pneumoniae serotype 4 (strain ATCC BAA-334 / TIGR4)), what pIC50 belongs to CCNC(=O)Nc1cn2c(-c3ncc(Cl)cn3)cc(-c3cccnc3)cc2n1 ?
6.83

Could you share what pIC50 was measured for CCNC(=O)Nc1cn2c(-c3ncccn3)cc(-c3cncnc3)cc2n1 , tested on DNA gyrase subunit B (Streptococcus pneumoniae serotype 4 (strain ATCC BAA-334 / TIGR4))?
7.12

Enter reported pIC50 observed with DNA gyrase subunit B (Streptococcus pneumoniae serotype 4 (strain ATCC BAA-334 / TIGR4)) for CCNC(=O)Nc1cn2c(-c3ncc(C)cn3)cc(-c3ccc(OC)nc3)cc2n1
6.93
